- tgt: Sigma 2 receptor
- assay.name: The Binding affinity was evaluated against sigma-2 binding site in rat liver using [3H]- -(+)-3-PPP
reported.metric: pKi
The quantity pKi is defined as the negative base-10 logarithm of the molar concentration.

Query: For Sigma 2 receptor, provide pKi of CN(CCc1ccc(Cl)c(Cl)c1)CCN1CCCC1 please.
Result: 9.47

====

- tgt: Sigma 2 receptor
- assay.name: The Binding affinity was evaluated using [3H]DTG -(+)-Dextrallorphan] in rat liver
reported.metric: pKi
Keep in mind that pKi stands for -log10 of concentration in molar terms.

Query: Provide value of pKi for this record tested with Sigma 2 receptor: Cc1ccc(NC(=N)Nc2ccc(C)cc2)cc1
Result: 5.81
